target.desc: human carbonic anhydrase 9 (CAIX) (human, UniProt Q16790 38-459)
test.summary: FACS competition on HT-29 cells against tracer 3BP-2776; pIC50 category A = pIC50 >8.0
Starred links: 1 amine or outer side, 2 acyl side, 3 side chain; linkers in the order of their positions; H or OH if unused. Positions of bridges follow the written chain, without caps; N, C: chain ends. Non-standard residues stand in square brackets, D forms with d. *: point of attachment. DOTA = O=C(O)CN1CCN(CC(=O)O)CCN(CC(=O)*)CCN(CC(=O)O)CC1; mXylylene = c1cc(C[*:1])cc(C[*:2])c1; Pen = CC(C)(S)[C@H](N)C(=O)O; APAc = not defined here
reported.endpoint: pIC50

Use these answered entries as a reference point.
binder	pIC50
{DOTA-APAc}-VYCE[dP]DWLTWRC-NH2 (linker 3-12 via mXylylene; reading uncertain, also called DOTA-APAc-Val-Tyr-[Cys(3MeBn)-Glu-pro-Asp-Trp-Leu-Thr-Trp-Arg-Cys]-NH2) [3BP-3599]	> 8 pic50
Ac-VYCEGDWLTWQ[Pen]-NH2 (linker 3-12 via mXylylene; SMILES CC(=O)N[C@H](C(=O)N[C@@H](Cc1ccc(O)cc1)C(=O)N[C@H]1CSCc2cccc(c2)CSC(C)(C)[C@@H](C(N)=O)NC(=O)[C@H](CCC(N)=O)NC(=O)[C@H](Cc2c[nH]c3ccccc23)NC(=O)[C@H]([C@@H](C)O)NC(=O)[C@H](CC(C)C)NC(=O)[C@H](Cc2c[nH]c3ccccc23)NC(=O)[C@H](CC(=O)O)NC(=O)CNC(=O)[C@H](CCC(=O)O)NC1=O)C(C)C) [3BP-3064]	> 8 pic50

// below: pIC50 requested for another binder
So for {DOTA-APAc}-VYCE[dP]SWLTWSC-NH2 (linker 3-12 via mXylylene; reading uncertain, also called DOTA-APAc-Val-Tyr-[Cys(3MeBn)-Glu-pro-Ser-Trp-Leu-Thr-Trp-Ser-Cys]-NH2) [3BP-3595] , the logged pIC50 turned out to be > 8 pic50
